# Test details: Solubility in water (10 mg in 1 ml H2O, shaken, centrifuged, HPLC against DMSO solution)
# Type: physicochemical
# Conditions: water, thermodynamic from solid, 10 mg substance in 1 ml H2O, shaken 10 minutes, supernatant measured by HPLC
Assay readout: solubility at 10 min (µg/mL)
Return type: number; implicit unit µg/mL.

Some entries whose results are on file:
CC(=O)N[C@@H](Cn1cc(C)c(N2CCC(CNc3nc4ccccc4[nH]3)CC2)nc1=O)C(=O)O.Cl :: 1000
CCNC(=O)N[C@@H](Cn1cc(C)c(N2CCC(CNc3nc4ccccc4[nH]3)CC2)nc1=O)C(=O)O :: 860
Cc1cn(C[C@H](NC(=O)N(C)C)C(=O)O)c(=O)nc1N1CCC(CNc2nc3ccccc3[nH]2)CC1.Cl :: 810

Here is the next item to consider.
**Q:** Given Cc1cn(C[C@H](NS(=O)(=O)N(C)C)C(=O)O)c(=O)nc1N1CCC(CNc2nc3ccccc3[nH]2)CC1.Cl.Cl , state its recorded solubility at 10 min.
**A:** 2500
